Tmax overview
method: IV and oral pharmacokinetics in male Sprague-Dawley rats
Assay type: in vivo, rat
settings: male, Sprague-Dawley; IV Dose (1 mg/kg), rat plasma

molecule	Tmax
Cc1sc2c(c1C)C(c1ccc(Cl)cc1)=N[C@@H](CC(=O)OCCCCCCO)c1nnc(C)n1-2	4.98 min
Cc1sc2c(c1C)C(c1ccc(Cl)cc1)=N[C@@H](CC(=O)OCC(C)O)c1nnc(C)n1-2 (stereo partly shown)	4.98 min
Cc1sc2c(c1C)C(c1ccc(Cl)cc1)=N[C@@H](CC(=O)OC1CCC(O)CC1)c1nnc(C)n1-2 (stereo partly shown)	4.98 min
Cc1sc2c(c1C)C(c1ccc(Cl)cc1)=N[C@@H](CC(=O)OCCCO)c1nnc(C)n1-2	4.98 min
